Attribution: paper PMC5540273

- Tested on: AXL;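 further: KINOMEscan kinase panel screen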
- CONDITION_DETAILS: concentration: 1 μM,replicates: in singlicate; n = 1

- COMPOUND: "COc1cccc(OC)c1C(=O)Nc1cccc(-c2nn3ccccc3c2-c2ccnc(Nc3cccc(F)c3)n2)c1 [GSK361065]"
  MEASUREMENT_UNIT: "%"
  %Inh: 30
- COMPOUND: "NC(=O)c1ccc(-c2cc3ncnc(SCC(=O)O)c3s2)cc1"
  MEASUREMENT_UNIT: "%"
  %Inh: 0
- COMPOUND: "CN1CCN(CCCNc2nccc(-c3c(-c4ccc(F)cc4)nn4cc(C(N)=O)ccc34)n2)CC1 [GW622475]"
  MEASUREMENT_UNIT: "%"
  %Inh: 17
- COMPOUND: "O=C(NCC1CC1)c1ccc(-c2cc(C(=O)NC3CC3)ccc2F)cc1 [GW810445]"
  MEASUREMENT_UNIT: "%"
  %Inh: 10
